Test system: BGC-823 human gastric cancer cells
Test: Tumor cell growth inhibition in vitro, MTT assay
Format: cell-based
Conditions: BGC-823, 96 hr, listed as lcotinib hydrochloride Crystalline Form I, hydrochloride
PROPERTY_MEASURED: IC50 (µM)
Just the number please, in µM, no unit attached.

Given C#Cc1cccc(Nc2ncnc3cc4c(cc23)OCCOCCOCCO4)c1.Cl [hydrochloride] , respond with its IC50.
4.06

* * *

Tested on: A549 human non-small cell lung cancer cells
Test: Tumor cell growth inhibition in vitro, MTT assay
Type: cell-based
Conditions: A549, 96 hr, listed as lcotinib hydrochloride Crystalline Form I, hydrochloride
PROPERTY_MEASURED: pIC50
Please express pIC50 as -log10 of the molar concentration.

Please look at this molecule and report its pIC50: C#Cc1cccc(Nc2ncnc3cc4c(cc23)OCCOCCOCCO4)c1.Cl [hydrochloride]
4.92

* * *

Tested on: A431 human epidermoid carcinoma
Experiment: Tumor cell growth inhibition in vitro, MTT assay
Assay type: cell-based
Settings: A-431, A431, 96 hr
Procedure: Method: Cells (˜2×10^3) were seeded in 96-well plates in 200 μL of RPMI1640 cell culture medium supplemented with 10% FBS. […] Following a 96 hr incubation, the MTT [3-(4,5-dimethylthiazol-2-yl)-2,5-diphenyltetrazolium] colorimetric assay was performed using a microplate reader (reference wavelength 450 nm, detection wavelength 570 nm). […]
PROPERTY_MEASURED: IC50
Please don't drop the unit; write it after the number.

Tell me IC50 reported for C#Cc1cccc(Nc2ncnc3cc4c(cc23)OCCOCCOCCO4)c1.Cl [hydrochloride]
1 µM

* * *

Test system: HCT8 human colon cancer cells
Test: Tumor cell growth inhibition in vitro, MTT assay
Assay type: cell-based
Details: Homo sapiens, HCT-8; HCT8, 96 hr, MTT
PROPERTY_MEASURED: IC50

Please list IC50 recorded for the compound C#Cc1cccc(Nc2ncnc3cc4c(cc23)OCCOCCOCCO4)c1.Cl [hydrochloride]
> 200 µM

* * *

Test: in vivo
Conditions: Beagle (dogs), rat, dog, po
PROPERTY_MEASURED: bioavailability

Look up and report measured bioavailability for this entry: C#Cc1cccc(Nc2ncnc3cc4c(cc23)OCCOCCOCCO4)c1.Cl
27 to 62%

* * *

Tested on: A549 human non-small cell lung cancer cells
Experiment: Tumor cell growth inhibition in vitro, MTT assay
Type: cell-based
Settings: Homo sapiens, A549, 96 h
PROPERTY_MEASURED: IC50 (µM)
Quick note: give the figure in µM, leave out the unit.

Note IC50 for the compound shown: C#Cc1cccc(Nc2ncnc3cc4c(cc23)OCCOCCOCCO4)c1.Cl [hydrochloride]
12

* * *

Tested on: BGC-823 human gastric cancer cells
Assay: Tumor cell growth inhibition in vitro, MTT assay
Type: cell-based
Settings: Homo sapiens, BGC-823, 96 h
PROPERTY_MEASURED: IC50 (µM)
Only the number, expressed in µM, is required.

Give IC50 only, for C#Cc1cccc(Nc2ncnc3cc4c(cc23)OCCOCCOCCO4)c1.Cl [hydrochloride] , using BGC-823 human gastric cancer cells data.
4

* * *

Target: EGFR tyrosine kinase (Homo sapiens, UniProt P00533)
Sequence (P00533 25-1210): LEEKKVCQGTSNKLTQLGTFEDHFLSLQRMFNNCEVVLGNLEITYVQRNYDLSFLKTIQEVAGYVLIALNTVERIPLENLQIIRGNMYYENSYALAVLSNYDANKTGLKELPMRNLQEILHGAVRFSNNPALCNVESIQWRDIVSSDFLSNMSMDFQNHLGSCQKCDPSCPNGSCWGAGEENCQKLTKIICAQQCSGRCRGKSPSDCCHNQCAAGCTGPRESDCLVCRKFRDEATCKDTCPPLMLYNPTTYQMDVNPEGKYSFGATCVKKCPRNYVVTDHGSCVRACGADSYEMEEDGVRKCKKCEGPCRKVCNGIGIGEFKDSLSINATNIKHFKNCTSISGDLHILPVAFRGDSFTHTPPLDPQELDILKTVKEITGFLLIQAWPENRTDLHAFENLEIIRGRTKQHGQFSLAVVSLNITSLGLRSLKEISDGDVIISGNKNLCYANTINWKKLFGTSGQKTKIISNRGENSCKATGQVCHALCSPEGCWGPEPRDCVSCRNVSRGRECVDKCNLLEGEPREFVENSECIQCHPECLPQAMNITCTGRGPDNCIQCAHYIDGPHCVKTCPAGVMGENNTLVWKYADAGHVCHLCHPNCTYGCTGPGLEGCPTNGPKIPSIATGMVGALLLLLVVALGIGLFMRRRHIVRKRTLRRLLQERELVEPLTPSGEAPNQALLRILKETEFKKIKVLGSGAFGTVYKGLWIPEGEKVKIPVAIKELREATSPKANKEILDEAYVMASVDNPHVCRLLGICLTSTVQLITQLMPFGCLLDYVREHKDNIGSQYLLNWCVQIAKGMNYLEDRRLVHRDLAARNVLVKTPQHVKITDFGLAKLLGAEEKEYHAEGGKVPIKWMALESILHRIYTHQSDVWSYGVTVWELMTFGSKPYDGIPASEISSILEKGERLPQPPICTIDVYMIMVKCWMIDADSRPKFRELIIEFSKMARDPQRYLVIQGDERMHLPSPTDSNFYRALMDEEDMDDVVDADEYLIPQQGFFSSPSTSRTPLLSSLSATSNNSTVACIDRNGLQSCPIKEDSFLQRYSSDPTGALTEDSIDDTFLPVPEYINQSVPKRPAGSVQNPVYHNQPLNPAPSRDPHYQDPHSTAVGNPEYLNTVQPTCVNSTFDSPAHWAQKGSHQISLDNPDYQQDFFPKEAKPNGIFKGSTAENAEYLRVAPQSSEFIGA
PROPERTY_MEASURED: pIC50
Schema: pIC50 number; meaning minus log10 of the concentration expressed in molar units.

State the measured pIC50 (EGFR tyrosine kinase (Homo sapiens, UniProt P00533)) of C#Cc1cccc(Nc2ncnc3cc4c(cc23)OCCOCCOCCO4)c1.Cl [hydrochloride]
8.30
